Biological target: Protein farnesyltransferase (Homo sapiens, UniProt P49354+P49356)
Assay: Percent inhibition of Ha-Ras protein processing in THAC (Ha-ras-transformed CCL39) cells at 10 uM
Type: functional
Outcome measure: inhibition (%)

A = CSCC[C@H](NC(=O)c1cccc2cc(NC[C@@H](N)CS)ccc12)C(=O)O
B = CSCC[C@H](NC(=O)c1cccc2c(NC(=O)[C@@H](N)CS)cccc12)C(=O)O
C = COC(=O)[C@H](CCSC)NC(=O)c1cccc2c(NC[C@@H](N)CS)cccc12
I would appreciate it if you could sort these 3 compounds by inhibition, starting from the smallest number. // respond by listing labels in the order requested B, A, C

----------
Target: Protein farnesyltransferase (Homo sapiens, UniProt P49354+P49356)
Assay: Inhibition of [3H]FPP incorporation into human Ha-Ras by farnesyltransferase
Assay type: protein-complex assay
pIC50: −log10 of the molar value. Square brackets hold non-standard residues; d marks the D form. Peptide text beside a SMILES is read from it. NMeM = CN[C@@H](CCSC)C(=O)O; Nle = CCCC[C@H](N)C(=O)O
Outcome measure: pIC50

Here is how some compounds turned out for pIC50.
Compound	Numeric value
CCCC[C@H](NC(=O)[C@H](Cc1ccccc1)NC(=O)[C@@H](NC(=O)[C@@H](N)CS)C(C)C)C(=O)O (H-CVF[Nle]-OH)	6.02
CSCC[C@H](NC(=S)[C@H](Cc1ccccc1)NC(=O)[C@@H](NC(=O)[C@@H](N)CS)C(C)C)C(=O)O	7.77
CSCC[C@H](NC(=O)c1cccc2cc(NC(=O)[C@@H](N)CS)ccc12)C(=O)O	7.22
CSCC[C@@H](C(=O)O)N(C)C(=O)c1cccc2c(NC[C@@H](N)CS)cccc12	6.68
CCCC[C@H](NC(=O)c1cccc2c(NC[C@@H](N)CS)cccc12)C(=O)O	7.36
CSCC[C@H](NC(=S)c1cccc2c(NC[C@@H](N)CS)cccc12)C(=O)O	8.32
CSCC[C@@H](C(=O)O)N(C)C(=O)[C@H](Cc1ccccc1)NC(=O)[C@@H](NC(=O)[C@@H](N)CS)C(C)C (H-CVF[NMeM]-OH)	5.85

I = COC(=O)[C@H](CCSC)NC(=O)[C@H](Cc1ccccc1)NC(=O)[C@@H](NC(=O)[C@@H](N)CS)C(C)C (H-CVFM-OMe)
II = COC(=O)[C@H](CCSC)NC(=O)c1cccc2c(NC[C@@H](N)CS)cccc12
Looking only at measured pIC50, which entry is lower, I or II ? Response format: the label of the selected entry. I
(I: 5.47, II: 6.49)

----------
Biological target: Protein farnesyltransferase (Homo sapiens, UniProt P49354+P49356)
Experiment: Percent inhibition of Ha-Ras protein processing in THAC (Ha-ras-transformed CCL39) cells at 10 uM
Type: functional
Square brackets hold non-standard residues; d marks the D form. Peptide text beside a SMILES is read from it. Tic = O=C(O)[C@@H]1Cc2ccccc2CN1; NMeV = CN[C@H](C(=O)O)C(C)C
Outcome measure: inhibition (%)

Compound	Target system	inhibition (%)
CSCC[C@H](NC(=O)c1cccc2c(NC[C@@H](N)CS)cccc12)C(=O)O	Protein farnesyltransferase (Homo sapiens, UniProt P49354+P49356)	0
CSCC[C@H](NC(=O)[C@@H]1Cc2ccccc2CN1C(=O)[C@H](C(C)C)N(C)C(=O)[C@@H](N)CS)C(=O)O (H-C[NMeV][Tic]M-OH)	Protein farnesyltransferase (Homo sapiens, UniProt P49354+P49356)	0
